Test: Solubility of compound in 50 mM sodium phosphate buffer at room temperature
Format: physicochemical
Conditions: read-out: S
assay.endpoint: solubility

I'm hoping you can list solubility for every compound here, please.
1. COC1OC(CNC(=O)C(NC(C)=O)C(C)(C)SN=O)C(O)C(O)C1O (centres undefined)
2. CC(=O)NC(C(=O)NC1C(O)OC(CO)C(O)C1O)C(C)(C)SN=O (centres undefined)

[out]
1. > 1000 mg/mL
2. > 1000 mg/mL

I'm hoping you can list solubility for every compound here, please.
1. CC(=O)N[C@@H](C(=O)O)C(C)(C)SN=O
2. CC(=O)NC(C(=O)NC1OC(CO)C(O)C(O)C1O)C(C)(C)SN=O (centres undefined)

[out]
1: 2 mg/mL; 2: > 1000 mg/mL

###

Assignment: determine reported half-life for the given compounds.
Test: Compound was evaluated for its stability in phosphate buffer in absence of EDTA at pH 7.4
Assay type: physicochemical
Settings: phosphate buffer without EDTA
Give bare numbers, in h.

- compound: "CC(=O)NC(C(=O)NC1C(O)OC(CO)C(O)C1O)C(C)(C)SN=O (centres undefined)"
  result.number: 27.4
- compound: "CC(=O)N[C@@H](C(=O)O)C(C)(C)SN=O"
  result.number: 10.3
- compound: "CC(=O)NC(C(=O)NC1OC(CO)C(O)C(O)C1O)C(C)(C)SN=O (centres undefined)"
  result.number: 30.2

Query compound follows.
[in] Data request, read-out half-life, for COC1OC(CNC(=O)C(NC(C)=O)C(C)(C)SN=O)C(O)C(O)C1O (centres undefined)
[out] 28.2

###

Assay: Half-life in phosphate buffer at pH 7 and 37 degree C
Assay type: ADME
assay.endpoint: half-life (h)
Numbers only, in h.

[in] Data request, read-out half-life, for `CC(=O)N[C@@H](C(=O)O)C(C)(C)SN=O`
[out] 5

###

Assignment: determine reported half-life for the given compounds.
Test: Compound was evaluated for its stability in phosphate buffer in presence of EDTA at pH 7.4
Format: physicochemical
Settings: phosphate buffer with EDTA
Give bare numbers, in h.

Here is how some compounds turned out for half-life.
- compound: "COC1OC(CNC(=O)C(NC(C)=O)C(C)(C)SN=O)C(O)C(O)C1O (centres undefined)"
  assay.endpoint: "half-life"
  result.number: 30.2
- compound: "CC(=O)NC(C(=O)NC1OC(CO)C(O)C(O)C1O)C(C)(C)SN=O (centres undefined)"
  assay.endpoint: "half-life"
  result.number: 28.5
- compound: "CC(=O)NC(C(=O)NC1C(O)OC(CO)C(O)C1O)C(C)(C)SN=O (centres undefined)"
  assay.endpoint: "half-life"
  result.number: 27.5

Query compound follows.
[in] Data request, read-out half-life, for `CC(=O)N[C@@H](C(=O)O)C(C)(C)SN=O`
[out] 15.9
